Tested on: CP237
Experiment: qHTS profiling for inhibitors of Plasmodium falciparum proliferation (AID 504749); also: nearly all actives have a fitted effect of over 60% in size
Conditions: P. falciparum in erythrocytes, SYBR Green DNA, 72 h; series mostly up to 28.7 µM
Results filed as inconclusive are left out. Activity calls are given as the source filed them. Calls follow the shape of the dose curve; as a rule, active = well fitted inhibition curve with a large enough effect; inconclusive = small, poorly fitted or top-dose-only effect; inactive = flat fitted curve, though single readings scatter.
Please reply with one of these outcomes: active, inactive

Which outcome did this test record for the compound NS(=O)(=O)c1ccc(Cl)c(S(N)(=O)=O)c1 ? inactive

Try O=C(Nc1ccc([N+](=O)[O-])cc1)Nc1ccc([N+](=O)[O-])cc1 next. active

Try CC(C)Cc1ccc(CC(=O)O)cc1 next. inactive

Try CCCCC(CC)COC(=O)/C=C/c1ccc(OC)cc1 (stereo unspecified) next. inactive

Try C#C[C@]1(OC(C)=O)CC[C@H]2[C@@H]3CCC4=C/C(=N/O)CC[C@@H]4[C@H]3CC[C@@]21CC next. inactive

Try CC[C@H](c1ccc(O)cc1)[C@@H](CC)c1ccc(O)cc1 next. inactive

// provenance: PubChem BioAssay (NCATS)
